assay remarks: refractive index (Na D-line) (dimensionless)
protocol conditions: 298.15 K; 101.33 kPa; Liquid; Standard Abbe refractometry
parameter: refractive index
Answer with a number only.

For the compound CCCCCCl , what refractive index is on record?
1.4097

For the compound CCCCOC(C)=O [butyl ethanoate] , what refractive index is on record?
1.3918

For the compound CCCCCl , what refractive index is on record?
1.3996

For the compound CCCCCCCCl , what refractive index is on record?
1.4236

For the compound CCCCCCCCCl , what refractive index is on record?
1.4282

For the compound CCCCCCCl , what refractive index is on record?
1.4171

----------
Provide the recorded mass density for the entries that follow.
protocol conditions: 298.15 K; 101 kPa; Liquid
Use kg/m3 as the unit, but write only the number.

For the compound CCCCOC(C)=O [butyl ethanoate] , what mass density is on record?
876.28

For the compound CCCCCCl , what mass density is on record?
876.93

For the compound CCCCCCCCl , what mass density is on record?
872.79

For the compound CCCCCCCl , what mass density is on record?
873.39

For the compound CCCCCCCCCl , what mass density is on record?
868.71

For the compound CCCCCl , what mass density is on record?
880.87
